Listed below: %Inh values for each entry.
# Test system: MAST1
# applied.conditions: concentration: 1 μM, replicates: in singlicate; n = 1;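 further: KINOMEscan kinase panel screen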
// units = %; emit number, no label

COc1cc2c(cc1OC[C@@H](O)CO)ncc1c3ccc(C#N)cc3[nH]c21 :: 62
NS(=O)(=O)c1cccc(-c2ccc3nccc(-c4cccc(S(N)(=O)=O)c4)c3c2)c1 [GW867253] :: 47
Cc1c2ccc(N(C)c3ccnc(Nc4cccc(S(N)(=O)=O)c4)n3)cc2nn1Cc1ccccc1.Cl.Cl [GW787226] :: 0
Cc1ccc(NC(=O)c2ccnc(N3CCN(C)CC3)c2)cc1-c1ccc(C(=O)NCC2CC2)cc1 [GW775604] :: 0
COc1ccc(S(=O)(=O)NC2CCN(c3cc(C)nc(Nc4cccc(C#N)c4)n3)CC2)cc1.O=C(O)C(F)(F)F [GSK1653539] :: 0

Exercise: What does the record list as %Inh for Cc1ccc(C(=O)NCC(N)=O)cc1-n1c(C)cc(OCc2ccc(F)cc2F)c(Br)c1=O ?
Key: 0

Exercise: Which %Inh is reported for this compound? COc1cc(Nc2nccc(N3CCC(NC(=O)c4cccc(NC(C)=O)c4)C3)n2)cc(OC)c1OC (stereo not shown) [GSK1379754]
Key: 0

Exercise: Would you kindly share the measured %Inh for Cc1cccc(-c2nc(Nc3ccc4ncsc4c3)c3ccccc3n2)n1 [GW867588] ?
Key: 21

---

Listed here: items and their measured %Inh.
# Test system: YANK3
# Construct: gene STK32C
# applied.conditions: concentration: 1 μM, replicates: in singlicate; n = 1
Give just the numeric value; % need not be written.

Worked examples follow.
Fc1ccc(-c2ncn(CCCN3CCOCC3)c2-c2ccccn2)cc1 [SB-211742] :: 0
COc1cc2c(cc1OCCN1CCN(C)CC1)ncc1c3ccc(C#N)cc3[nH]c21 :: 35
[2H]C([2H])(c1cccc(C(F)(F)F)c1C)n1ccn2c(=O)nc(N3CCOCC3)cc12 [GSK2336394] :: 0
Cc1c2ccc(N(C)c3ccnc(Nc4cccc(S(N)(=O)=O)c4)n3)cc2nn1Cc1ccccc1.Cl.Cl [GW787226] :: 0
c1ccc(-c2n[nH]cc2-c2ccnc3ccccc23)nc1 [GW271431] :: 18
CC(C)Oc1ccc2c(-c3ccnc(Nc4ccc(N5CCN(C)CC5)cc4)n3)cnn2n1 [GW696155] :: 0
Fc1ccc(-c2ncn(CCCN3CCOCC3)c2-c2cccnc2)cc1 [SB-211743] :: 0
COc1ccc(COc2cc(-n3cnc4ccccc43)sc2C(N)=O)cc1 [GSK1024304] :: 0

// moving on: another record for %Inh
Exercise: Entry NS(=O)(=O)c1cccc(-c2ccc3ncc(N4CCOCC4)nc3c2)c1 [GSK1535721] has what %Inh?
Key: 1

---

Form field: %Inh (one value per entry).
# Test system: WEE1
# applied.conditions: concentration: 1 μM, replicates: in singlicate; n = 1

These recorded examples may help you get a feel for the data.
Cc1nnc(-c2ccc(C)c(-c3ccc(C(=O)Nc4ccc(NS(C)(=O)=O)cc4)cc3)c2)o1 [GW702865] :: 17%
Cc1ccc(C(=O)NCC(N)=O)cc1-n1c(C)cc(OCc2ccc(F)cc2F)c(Br)c1=O :: 3%
Fc1ccc(-c2nn3c(OCC(F)(F)F)cccc3c2-c2ccncc2)cc1 [GW514784] :: 10%
O=C(NCCCN1CCOCC1)c1cccc(Nc2nccc(Nc3ccc(Oc4ccccc4)cc3)n2)c1 [GW663929] :: 31%
COc1ccc(Nc2nccc(N3CCC(NC(=O)Nc4cccc(C(C)=O)c4)C3)n2)cc1 (stereo not drawn) [GSK1379731] :: 6%

Exercise: What measured %Inh goes with Nc1nc(-c2ccc3c(N)n[nH]c3c2)cc(N2CCCC2)n1 [GSK2227430] ?
Key: 35%

Exercise: Could you tell me which %Inh is on file for CCc1nc(-c2cccc(C)c2)c(-c2ccnc(NCc3ccccc3)c2)s1 ?
Key: 0%

Exercise: Requested field: %Inh. Item: NCCNS(=O)(=O)c1ccc(-c2ccnc3[nH]ccc23)cc1 [GSK977617]
Key: 9%

Exercise: For the compound shown here, CCCCCc1nc2c(N)ncnc2n1CCCCC [SKF-97255] , give the reported %Inh.
Key: 0%
